These measurements were taken from patent US20040006042A1.

tested on: P388 murine leukemia cells; assay: Combination of antifolates with FU and LV on P388 proliferation; format: cell-based; conditions: antifolate 1.0 nM 24 hours, LV 10 μM final 4.5 hours, 5 μM FU final 4 hours
Where a name gives a salt, the structure may show the parent alone.
value_kind: Antifol + LV + FU

Give Antifol + LV + FU (P388 murine leukemia cells) of the following compound: COc1cc(NCc2ccc3nc(N)nc(N)c3c2C)cc(OC)c1OC [Trimetrexate, reference compound]
9% of control

Same for CC(=O)c1ccc(N2CCN(c3c(C)nc(N)nc3N)CC2)cc1
5% of control

Quick one: Cc1nc(N)nc(N)c1N1CCN(c2ccc(C(=O)N(C)N)cc2)CC1
7% of control

Try this compound next: Cc1nc(N)nc(N)c1N1CCN(c2ccc(/C=N/OCCN)cc2)CC1 [Example 12, dihydrochloride]
16% of control

Ok, now CC(=O)c1ccc(N2CCN(c3c(C)nc(N)nc3N)CC2)cc1F
15% of control

---

Target: UniProt:P00374
Sequence (P00374 1-187): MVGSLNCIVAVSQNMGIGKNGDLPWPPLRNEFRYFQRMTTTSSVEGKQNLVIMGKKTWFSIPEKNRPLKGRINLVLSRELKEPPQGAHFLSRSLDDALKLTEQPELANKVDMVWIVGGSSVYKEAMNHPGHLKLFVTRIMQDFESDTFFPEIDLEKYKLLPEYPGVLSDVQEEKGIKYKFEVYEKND
Experiment: Inhibition of dihydrofolate reductase (Table 1)
Format: biochemical
value_kind: pKi
Note on units: pKi is unitless, being -log10 of a concentration expressed in mol/L.

So what pKi did Cc1nc(N)nc(N)c1N1CCN(c2ccc(C=O)cc2)CC1 get with UniProt:P00374?
10.14

Input CC(=O)c1ccc(N2CCN(c3c(C)nc(N)nc3N)CC2)cc1
9.88

Continue with Cc1nc(N)nc(N)c1N1CCN(c2ccc(C(=O)O)cc2)CC1
9.70

Same question for CCOC(=O)CCC(NC(=O)c1ccc(N2CCN(c3c(N)nc(N)nc3CC)CC2)cc1)C(=O)OCC (centres unmarked) please.
9.96

Let us now turn to Cc1nc(N)nc(N)c1N1CCN(c2ccc(S(C)(=O)=O)cc2)CC1
9.86

---

target: dihydrofolate reductase (Homo sapiens, UniProt P00374); test: Inhibition of dihydrofolate reductase (Table 1); assay type: biochemical; conditions: read-out: Ki
value_kind: pKi
Just the number, please; pKi means minus log10 of the concentration in mol/L.

Could you tell me which pKi is on file for Cc1nc(N)nc(N)c1N1CCN(c2ccc(CNC(CCC(=O)O)C(=O)O)cc2)CC1 (stereo not shown) ?
10.28

---

Can you tell me Antifol + LV for the items I'm about to list?
tested on: P388 murine leukemia cells; assay: Combination of antifolates with FU and LV on P388 proliferation; assay type: cell-based; conditions: antifolate 1.0 nM 24 hours, LV 10 μM final 4.5 hours
Where a name gives a salt, the structure may show the parent alone.

Quick one: Antifol + LV of CC(=O)c1ccc(N2CCN(c3c(C)nc(N)nc3N)CC2)cc1 ?
110% of control

Try CC(=O)c1ccc(N2CCN(c3c(C)nc(N)nc3N)CC2)cc1F next.
86% of control

Cool, now Cc1nc(N)nc(N)c1N1CCN(c2ccc(C(=O)N(C)N)cc2)CC1
85% of control

Query Cc1nc(N)nc(N)c1N1CCN(c2ccc(/C=N/OCCN)cc2)CC1 [Example 12, dihydrochloride] next
97% of control

One more molecule: COc1cc(NCc2ccc3nc(N)nc(N)c3c2C)cc(OC)c1OC [Trimetrexate, reference compound]
85% of control
